# experiment.summary: folding enthalpy; higher = less favourable; fluorescence melt of hairpins on a sequencing array, two-state fit
# run.conditions: sodium 0.088 M
assay.metric: folding enthalpy (kcal/mol)

[
  {
    "residues": "CGCGGAAAGCTCCGCG ((((((....))))))",
    "assay.metric": "folding enthalpy",
    "recorded.result": -28.3
  },
  {
    "residues": "GCCAGGCGAAAGCTAGGC (((..((....))..)))",
    "assay.metric": "folding enthalpy",
    "recorded.result": -27.9
  },
  {
    "residues": "GCGTGAGGAAACCCACGC (((((.(....).)))))",
    "assay.metric": "folding enthalpy",
    "recorded.result": -42.2
  },
  {
    "residues": "GGGGGAGGAAACTCTCCC (((.(((....))).)))",
    "assay.metric": "folding enthalpy",
    "recorded.result": -38
  },
  {
    "residues": "GATCAGACTCCTGATC ((((((....))))))",
    "assay.metric": "folding enthalpy",
    "recorded.result": -36.1
  },
  {
    "residues": "CGAACCGGAAACGGCTCG (((.(((....))).)))",
    "assay.metric": "folding enthalpy",
    "recorded.result": -35.5
  },
  {
    "residues": "GAATGCGAAAGCATATTC ((((((....)))..)))",
    "assay.metric": "folding enthalpy",
    "recorded.result": -11.6
  },
  {
    "residues": "GTTCGGGGAAACCCGGAC ((.((((....)))).))",
    "assay.metric": "folding enthalpy",
    "recorded.result": -42.2
  },
  {
    "residues": "GTTGCCCGAAAGGGTAAC (((.(((....))).)))",
    "assay.metric": "folding enthalpy",
    "recorded.result": -31.6
  },
  {
    "residues": "GATCTTAAGAAAGATC ((((((....))))))",
    "assay.metric": "folding enthalpy",
    "recorded.result": -22.1
  },
  {
    "residues": "GGGCCCGAAAGGGGTCCC ((((((....)))..)))",
    "assay.metric": "folding enthalpy",
    "recorded.result": -14.5
  },
  {
    "residues": "GCTTTGGGAAACCAGAGC (((.(((....))).)))",
    "assay.metric": "folding enthalpy",
    "recorded.result": -27
  }
]

====

# experiment.summary: melting temperature; fluorescence melt of hairpins on a sequencing array, two-state fit, raised by 9.35 °C to match UV melts
# run.conditions: sodium 0.088 M

[
  {
    "residues": "GGACGAGAAATCGTCC ((((((....))))))",
    "reading.unit": "°C",
    "Tm": 60.2
  },
  {
    "residues": "GCTGAGCGAAAGCACCGC ((.(.((....)).).))",
    "reading.unit": "°C",
    "Tm": 37.2
  },
  {
    "residues": "GATCTCTTCGGAGATC ((((((....))))))",
    "reading.unit": "°C",
    "Tm": 54.5
  },
  {
    "residues": "CGTAACCGGAAACGGACG (((..(((....))))))",
    "reading.unit": "°C",
    "Tm": 34
  },
  {
    "residues": "GATCGGACCGCCGATC ((((((....))))))",
    "reading.unit": "°C",
    "Tm": 54.6
  },
  {
    "residues": "GATCGATCGTCGATC ((((((...))))))",
    "reading.unit": "°C",
    "Tm": 51.7
  },
  {
    "residues": "GTGTACGGAAACGTACAC (((((((....)))))))",
    "reading.unit": "°C",
    "Tm": 67.2
  },
  {
    "residues": "GAAAATGGAAACATTTCC (.(((((....))))).)",
    "reading.unit": "°C",
    "Tm": 28.6
  },
  {
    "residues": "GTGAGACGAAAGTCGCAC (((.(((....))).)))",
    "reading.unit": "°C",
    "Tm": 64.5
  },
  {
    "residues": "GAAGGCGAAAGCCGATTC ((((((....)))..)))",
    "reading.unit": "°C",
    "Tm": 57.8
  },
  {
    "residues": "GGTAATCGAAAGATAACC (((.(((....))).)))",
    "reading.unit": "°C",
    "Tm": 41.7
  },
  {
    "residues": "GACGGAGGAAACTCCATC ((.((((....)))).))",
    "reading.unit": "°C",
    "Tm": 33.6
  },
  {
    "residues": "GTTTACCGAAAGGTGAAC (((.(((....))).)))",
    "reading.unit": "°C",
    "Tm": 51.4
  },
  {
    "residues": "GCGAAGCGAAAGCCTTGC ((.(.((....)).).))",
    "reading.unit": "°C",
    "Tm": 36.3
  },
  {
    "residues": "GCCCCGCGAAAGCACGGC (((..((....))..)))",
    "reading.unit": "°C",
    "Tm": 41.6
  },
  {
    "residues": "GCGAGGACGAAAGTCCGC (((..(((....))))))",
    "reading.unit": "°C",
    "Tm": 56.2
  },
  {
    "residues": "GTGGAAGGAAACCTCCAC (((((.(....).)))))",
    "reading.unit": "°C",
    "Tm": 44.1
  },
  {
    "residues": "GTGAGAGGAAACTCCCAC (((.(((....))).)))",
    "reading.unit": "°C",
    "Tm": 36.6
  },
  {
    "residues": "GGATCCGGAAACGGACCC ((.((((....)))).))",
    "reading.unit": "°C",
    "Tm": 50.4
  },
  {
    "residues": "GAAGTACCGAAAGGTTTC (((..(((....))))))",
    "reading.unit": "°C",
    "Tm": 27.2
  },
  {
    "residues": "GATCCAAATGTGGATC ((((((....))))))",
    "reading.unit": "°C",
    "Tm": 48.5
  },
  {
    "residues": "GTAGTGGGAAACCATTAC (((.(((....))).)))",
    "reading.unit": "°C",
    "Tm": 38.1
  },
  {
    "residues": "GCGATACGAAAGTAACGC (((.(((....))).)))",
    "reading.unit": "°C",
    "Tm": 57.9
  },
  {
    "residues": "GTGGCCGAAAGGCTACAC ((((((....)))..)))",
    "reading.unit": "°C",
    "Tm": 58.2
  },
  {
    "residues": "GCGATGGGAAACCATTGC ((.((((....)))).))",
    "reading.unit": "°C",
    "Tm": 52.5
  },
  {
    "residues": "GGGTTCGAAAGAAAGCCC ((((((....)))..)))",
    "reading.unit": "°C",
    "Tm": 36
  },
  {
    "residues": "GACCCAGGAAACTGGGCC (.(((((....))))).)",
    "reading.unit": "°C",
    "Tm": 47.9
  },
  {
    "residues": "GATCTTCAAAAGATC ((((((...))))))",
    "reading.unit": "°C",
    "Tm": 41
  },
  {
    "residues": "GTTCCTGGAAACAGGAAC (((((((....)))))))",
    "reading.unit": "°C",
    "Tm": 63.5
  },
  {
    "residues": "GTCGGCGCGAAAGCGGAC (((..(((....))))))",
    "reading.unit": "°C",
    "Tm": 45.6
  },
  {
    "residues": "GCGAAAATCGC ((((...))))",
    "reading.unit": "°C",
    "Tm": 45
  },
  {
    "residues": "GTGGTGGGAAACTGCCAC ((((..(....)..))))",
    "reading.unit": "°C",
    "Tm": 49.1
  },
  {
    "residues": "GTGAGAGGAAACTCTCGC (.(((((....))))).)",
    "reading.unit": "°C",
    "Tm": 51.2
  },
  {
    "residues": "GTCAGTGGAAACGTTGAC ((((..(....)..))))",
    "reading.unit": "°C",
    "Tm": 34.9
  },
  {
    "residues": "GAGCCCGGAAACAGGCTC (((((.(....).)))))",
    "reading.unit": "°C",
    "Tm": 51.5
  },
  {
    "residues": "GCCAACTCGAAAGAGGGC (((..(((....))))))",
    "reading.unit": "°C",
    "Tm": 47.3
  },
  {
    "residues": "GGGGTGGGAAACCGCTCC ((.(.((....)).).))",
    "reading.unit": "°C",
    "Tm": 47.7
  },
  {
    "residues": "GTTTCCACGAAAGTGAAC (((..(((....))))))",
    "reading.unit": "°C",
    "Tm": 27.2
  },
  {
    "residues": "GCGGAAGGCCGC ((((....))))",
    "reading.unit": "°C",
    "Tm": 53.1
  },
  {
    "residues": "GATCAGGTTCTGATC ((((((...))))))",
    "reading.unit": "°C",
    "Tm": 50.5
  },
  {
    "residues": "GAATTACGAAAGTATTC (((.(((....))))))",
    "reading.unit": "°C",
    "Tm": 31.1
  },
  {
    "residues": "GATCCGGACGCGGATC ((((((....))))))",
    "reading.unit": "°C",
    "Tm": 59.5
  },
  {
    "residues": "GCGATGAAAATCGC (((((....)))))",
    "reading.unit": "°C",
    "Tm": 61.6
  },
  {
    "residues": "GGAGGTGGAAACACCTCC (((((((....)))))))",
    "reading.unit": "°C",
    "Tm": 68.6
  },
  {
    "residues": "GACTGCCGAAAGGCTGTC (((.(((....))).)))",
    "reading.unit": "°C",
    "Tm": 63.2
  },
  {
    "residues": "GAGTAAGAAATTACTC ((((((....))))))",
    "reading.unit": "°C",
    "Tm": 40.1
  },
  {
    "residues": "GATCCGGGAAACCGAATC (((.(((....))).)))",
    "reading.unit": "°C",
    "Tm": 38.2
  },
  {
    "residues": "GCTGAGCGAAAGCTTAGC (((.(((....))).)))",
    "reading.unit": "°C",
    "Tm": 57.4
  },
  {
    "residues": "GCGGTGCGAAAGCTTCGC (((..((....))..)))",
    "reading.unit": "°C",
    "Tm": 58.2
  },
  {
    "residues": "GCTTACGAAAGTAAGAGC ((((((....)))..)))",
    "reading.unit": "°C",
    "Tm": 45.4
  }
]

Origin of measurements: the array DNA melting data of Ke et al. (doi:10.1101/2024.01.08.574731)
